# credit: the supplement of paper PMC10567573

The variants listed here are annotated with their protein stability index.
B1: TOR1AIP2 (parent)
chain: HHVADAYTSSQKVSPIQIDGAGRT

variants of: B1; experiment: protein stability index of a GFP-peptide fusion (GPS, HEK-293T) (PSI 1-6); higher = more stable; conditions: c terminus: a fixed tail appended;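 note: lentivirally expressed fusions sorted by FACS into six bins by GFP to DsRed ratio, PSI derived from sequencing read proportions per bin multiplied by bin number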
Please reply with the value in numeric form only.

mutationlabel=G22Y numericreadout=2.82

Could you share which protein stability index value was measured for `I18A` ?
4.03

Could you share which protein stability index value was measured for `I16W` ?
2.59

Could you share which protein stability index value was measured for `S14V` ?
3.46
